Reference source for all entries: ChEMBL document CHEMBL1134617

Assign Ratio to each entry below.
Target: Serotonin receptor 2a and 2c (5HT2A and 5HT2C) (Rattus norvegicus) (UniProt P08909+P14842)
Assay: Ratio of binding affinity towards rat 5-HT2C and 5-HT2A receptors
Type: protein assay
Write the value as a bare number.

Record COc1ccc(OCCc2ccc(Br)cc2)cc1CCN has Serotonin receptor 2a and 2c (5HT2A and 5HT2C) (Rattus norvegicus) (UniProt P08909+P14842) Ratio equal to 1

Record COc1ccc(Br)cc1CCN has Serotonin receptor 2a and 2c (5HT2A and 5HT2C) (Rattus norvegicus) (UniProt P08909+P14842) Ratio equal to 1

Record COc1ccc(OCc2ccccc2)cc1CCN has Serotonin receptor 2a and 2c (5HT2A and 5HT2C) (Rattus norvegicus) (UniProt P08909+P14842) Ratio equal to 1

Record COc1cc(OCCc2ccccc2)ccc1CCN has Serotonin receptor 2a and 2c (5HT2A and 5HT2C) (Rattus norvegicus) (UniProt P08909+P14842) Ratio equal to 5

Record COc1ccc(Cc2ccccc2)cc1CCN has Serotonin receptor 2a and 2c (5HT2A and 5HT2C) (Rattus norvegicus) (UniProt P08909+P14842) Ratio equal to 1

Record COc1ccc(CCCCc2ccccc2)cc1CCN has Serotonin receptor 2a and 2c (5HT2A and 5HT2C) (Rattus norvegicus) (UniProt P08909+P14842) Ratio equal to 1

Record COc1ccc(CCCCCc2ccccc2)cc1CCN has Serotonin receptor 2a and 2c (5HT2A and 5HT2C) (Rattus norvegicus) (UniProt P08909+P14842) Ratio equal to 1

Record COc1ccc(CCCc2ccccc2)cc1CC(C)N (stereo unspecified) has Serotonin receptor 2a and 2c (5HT2A and 5HT2C) (Rattus norvegicus) (UniProt P08909+P14842) Ratio equal to 8

Record COc1cc(CCCc2ccccc2)ccc1CCN has Serotonin receptor 2a and 2c (5HT2A and 5HT2C) (Rattus norvegicus) (UniProt P08909+P14842) Ratio equal to 16

Record COc1cc(Cc2ccccc2)ccc1CCN has Serotonin receptor 2a and 2c (5HT2A and 5HT2C) (Rattus norvegicus) (UniProt P08909+P14842) Ratio equal to 4

* * *

Target: 5-hydroxytryptamine receptor 2C (Rattus norvegicus, UniProt P08909)
Sequence (P08909 whole entry): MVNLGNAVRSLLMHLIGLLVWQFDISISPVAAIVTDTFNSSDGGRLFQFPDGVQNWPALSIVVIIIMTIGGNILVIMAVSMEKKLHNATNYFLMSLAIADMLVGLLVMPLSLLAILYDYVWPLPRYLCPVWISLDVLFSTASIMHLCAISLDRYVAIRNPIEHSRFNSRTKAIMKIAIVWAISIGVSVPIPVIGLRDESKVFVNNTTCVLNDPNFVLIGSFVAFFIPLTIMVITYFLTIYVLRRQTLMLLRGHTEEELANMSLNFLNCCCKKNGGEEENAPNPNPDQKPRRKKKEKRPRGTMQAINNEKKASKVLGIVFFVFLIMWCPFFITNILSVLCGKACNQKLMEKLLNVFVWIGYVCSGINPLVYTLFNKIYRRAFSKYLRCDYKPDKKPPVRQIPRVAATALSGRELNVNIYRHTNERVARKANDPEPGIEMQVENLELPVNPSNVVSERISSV
Assign Ki to each entry below.
Return type: number; implicit unit µM.

The recorded Ki for entry COc1ccc(CCCc2ccccc2)cc1CCN equals 0.22

The recorded Ki for entry COc1cc(CCc2ccccc2)ccc1CCN equals 0.17

The recorded Ki for entry COc1cc(C#CCCCc2ccccc2)ccc1CCN equals 0.07

The recorded Ki for entry COc1cc(CCCc2ccccc2)ccc1CCN equals 0.295

The recorded Ki for entry COc1ccc(O)cc1CCN equals 4.86

The recorded Ki for entry COc1ccc(Cc2ccccc2)cc1CCN equals 0.23

The recorded Ki for entry COc1ccc(Br)cc1CCN equals 0.96

The recorded Ki for entry COc1ccc(CCCCc2ccccc2)cc1CCN equals 0.071
